biological target: human liver Cathepsin L (Homo sapiens); assay: Cathepsin L assay (fluorescence, Z-Phe-Arg-AMC hydrolysis); type: biochemical; parameters: from tissue; b54 says 'human kidney cell cathepsins'; conditions: Cathepsin L 19 pM; 5.0 uM Z-Phe-Arg-NMec(AMC); Dixon plot V-/V+ vs. peptide concentration; read-out: i.c. 50 (synthetic peptides, Cathepsin L)
Sequence (P07711 114-288 limits assumed): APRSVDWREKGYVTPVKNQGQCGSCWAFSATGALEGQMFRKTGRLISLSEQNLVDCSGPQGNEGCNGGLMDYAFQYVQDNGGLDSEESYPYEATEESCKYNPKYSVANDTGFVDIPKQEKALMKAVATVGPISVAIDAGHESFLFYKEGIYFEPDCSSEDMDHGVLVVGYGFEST
Sequence (P07711 292-333 limits assumed): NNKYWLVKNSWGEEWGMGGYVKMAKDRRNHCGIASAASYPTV
No end group written: not given here.
VALUE_KIND: IC50
Don't forget the unit after the value.

Query :: # get_value(readout='IC50', item= YSLDEERHRRLMWEENKKKIEAH [p117] )
Result :: 5.3 µM
